- assay-remarks: Quantitative High-Throughput drug screen in 47 multiple myeloma cell lines against the NCATS MIPE library collection: XG6_PLB cell viability assay (AID 1919865); also: nearly all actives have a fitted effect of over 40% in size
- measurement-parameters: XG6 myeloma viability, CellTiter-Glo ATP luminescence, 48 h; series mostly up to 45.8 µM
Results filed as inconclusive are left out. The source made the active and inactive calls. Calls follow the shape of the dose curve; as a rule, active = well fitted cell-killing curve with a large enough effect; inconclusive = small, poorly fitted or top-dose-only effect, or effect the other way; inactive = no such curve, though single readings can be large or run the other way.
Respond using exactly one of the listed classes: active, inactive

Prompt: I'd appreciate the recorded outcome for CN(C)CC(=O)N1CCC(c2ccc(NC(=O)c3ncc(C#N)[nH]3)c(C3=CCCCC3)c2)CC1 from this test.
Completion: active

Prompt: // outcome(item) with item = C[C@@H](NCc1cc2ccccc2[nH]1)c1cccc2ccccc12
Completion: inactive

Prompt: Hello, I am checking results. What call was entered for CC(C=CC=C(C)C=CC1=C(C)CCCC1(C)C)=CC=CC=C(C)C=CC=C(C)C=CC1=C(C)CCCC1(C)C ?
Completion: active

Prompt: Please state the recorded outcome for this molecule: Nc1cccc2c1C(=O)N(C1CCC(=O)NC1=O)C2=O (centres undefined)
Completion: inactive

---

- assay-remarks: Quantitative High-Throughput drug screen in 47 multiple myeloma cell lines against the NCATS MIPE library collection: KHM11_PLB cell viability assay (AID 1918962); also: nearly all actives have a fitted effect of over 35% in size
- measurement-parameters: KHM11 myeloma cell viability, CellTiter-Glo ATP luminescence, 48 h; series mostly up to 45.8 µM
Inconclusive results are not listed. Active and inactive are the calls of the source. Calls come from the whole dose curve; as a rule, active = well fitted cell-killing curve with a large enough effect; inconclusive = small, poorly fitted or top-dose-only effect, or effect the other way; inactive = no such curve, though single readings can be large or run the other way. Non-standard residues stand in square brackets, D forms with d. Residues, ends and D or L forms follow the SMILES beside them. *: point of attachment. Nva = CCC[C@H](N)C(=O)O; Cbz = O=C(OCc1ccccc1)*
Pick one: yes (1) for active, no (0) for inactive

Prompt: Fill in: this test's call for CCc1nc(-c2cccc(C)c2)c(-c2ccnc(NC(=O)c3ccccc3)c2)s1 is ___
Completion: yes (1)

Prompt: Can you look up the reported call for CS[C@H]1SC[C@@H]2C(=O)N(C)[C@H](C(C)C)C(=O)OC[C@H](NC(=O)c3cnc4ccccc4n3)C(=O)N[C@H](C)C(=O)N(C)[C@@H]1C(=O)N(C)[C@H](C(C)C)C(=O)OC[C@H](NC(=O)c1cnc3ccccc3n1)C(=O)N[C@H](C)C(=O)N2C for me?
Completion: yes (1)

Prompt: Please state the recorded outcome for this molecule: C[C@@]12C[C@@]3(O)O[C@@H](O1)[C@]1(COC(=O)c4ccccc4)[C@@H]3C[C@@]12O[C@@H]1O[C@H](CO)[C@@H](O)[C@H](O)[C@@H]1O
Completion: no (0)

Prompt: Answer briefly: the call reported for CC(C)(O)Cn1c(NC(=O)c2ccc(-c3cn[nH]c3)s2)nc2cc(CN3CCOCC3)ccc21 in this assay.
Completion: yes (1)

Prompt: What outcome does the record of this test show for CCN(CC)Cc1ccc2cc(COC(=O)Nc3ccc(C(=O)NO)cc3)ccc2c1 ?
Completion: yes (1)

Prompt: # lookup: test call for O=C(O)C=Cc1ccc(Cn2ccnc2)cc1
Completion: no (0)

Prompt: Hello, I am checking results. What call was entered for CN(C)CCN1C(=O)c2cccc3cc(N)cc(c23)C1=O ?
Completion: yes (1)

Prompt: Hi team, can someone confirm the assay call for COc1cccc2c1C(=O)c1c(O)c3c(c(O)c1C2=O)C[C@@](O)(C(=O)CO)C[C@H]3O[C@H]1C[C@H](N)[C@H](O)[C@H](C)O1 ?
Completion: yes (1)

Prompt: Lab log entry: CNC(=O)c1ccc(Nc2cc(Nc3ccccc3S(=O)(=O)C(C)C)c3cc[nH]c3n2)nc1 — outcome as called in the assay?
Completion: yes (1)

Prompt: Outcome logged for CCCCC(=O)O[C@]1(C(=O)CO)[C@@H](C)C[C@H]2[C@@H]3CCC4=CC(=O)C=C[C@]4(C)[C@@]3(F)[C@@H](O)C[C@@]21C in this assay:
Completion: no (0)

Prompt: Hi team, can someone confirm the assay call for CCC[C@@H](C=O)NC(=O)[C@H](CC(C)C)NC(=O)[C@H](CC(C)C)NC(=O)OCc1ccccc1 (Cbz-Leu-Leu-[Nva]-aldehyde) ?
Completion: yes (1)

Prompt: Name the outcome recorded for C[C@H](CCC(=O)O)[C@H]1CCC2C3C[C@H](O)[C@@H]4C[C@H](O)CC[C@]4(C)C3CC[C@@]21C (some centres undefined) in the assay.
Completion: no (0)

Prompt: Hey, what did the test say about C[C@]12C=CC(=O)N[C@@H]1CC[C@H]1[C@H]3CC[C@@H](C(=O)Nc4cc(C(F)(F)F)ccc4C(F)(F)F)[C@@]3(C)CC[C@@H]12 ?
Completion: no (0)

Prompt: Hi team, can someone confirm the assay call for COc1cc(C)c(Sc2cnc(NC(=O)c3ccc(CNC(C)C(C)(C)C)cc3)s2)cc1C(=O)N1CCN(C(C)=O)CC1 (centres undefined) ?
Completion: yes (1)

Prompt: Identify the outcome logged in this assay for the molecule shown: O=C(NCc1ccccc1)[C@H](Cc1ccccc1)NC(=O)[C@@H]1O[C@@H]1C(=O)NCCc1ccc(O)cc1
Completion: no (0)

Prompt: Check the results log: what was the call for CCC(C(=O)O)C1CCC(C)C(C(C)C(O)C(C)C(=O)C(CC)C2OC3(C=CC(O)[C@@]4(CC[C@](C)(C5CC[C@@](O)(CC)C(C)O5)O4)O3)C(C)CC2C)O1 (some centres undefined) ?
Completion: yes (1)

Prompt: Dear all, I need the recorded test outcome for CCc1cnn2c(NCc3ccc[n+]([O-])c3)cc(N3CCCC[C@@H]3CCO)nc12 , thank you.
Completion: yes (1)

Prompt: Name the outcome recorded for CC(=O)OCC(=O)[C@@]1(O)CC[C@H]2[C@@H]3CCC4=CC(=O)CC[C@]4(C)[C@@H]3C(=O)C[C@@]21C in the assay.
Completion: no (0)

Prompt: // param item: C[C@H](NC(=O)[C@@H](O)c1cc(F)cc(F)c1)C(=O)N[C@@H]1C(=O)N(C)c2ccccc2-c2ccccc21 ; yields the recorded call
Completion: no (0)

Prompt: Please share the test call associated with C[C@@]12C(=O)OC(=O)[C@@]1(C)C1CCC2O1 .
Completion: yes (1)

Prompt: Tell me the recorded outcome of this test for CC(C)NC[C@@H](C(=O)N1CCN(c2ncnc3c2[C@H](C)C[C@H]3O)CC1)c1ccc(Cl)cc1 .
Completion: yes (1)

Prompt: Called result for c1cncc(CN2CCC(n3ncc4c(N5CCOCC5)nc(-c5ccc6[nH]ccc6c5)nc43)CC2)c1
Completion: yes (1)

Prompt: Given C=CCNc1c(O)cc2c(O)c1C[C@@H](C)C[C@H](OC)[C@@H](O)[C@@H](C)C=C(C)[C@H](OC(N)=O)[C@@H](OC)C=CC=C(C)C(=O)N2 , state the outcome it received in this test.
Completion: yes (1)

Prompt: Recorded test call requested for O=C(C=Cc1ccc(CN(CCO)CCc2c[nH]c3ccccc23)cc1)NO
Completion: yes (1)

---

- assay-remarks: Quantitative High-Throughput drug screen in 47 multiple myeloma cell lines against the NCATS MIPE library collection: PCM6_Riken cell viability assay (AID 1919870); also: nearly all actives have a fitted effect of over 30% in size
- measurement-parameters: CellTiter-Glo ATP, 48 h; series mostly up to 45.8 µM
Records with an inconclusive call do not appear. Active and inactive are the calls of the source. Calls come from the whole dose curve; as a rule, active = well fitted cell-killing curve with a large enough effect; inconclusive = small, poorly fitted or top-dose-only effect, or effect the other way; inactive = no such curve, though single readings can be large or run the other way.
Please answer using one outcome listed in active, inactive

Prompt: State the result this test recorded for O=C(Nc1cccc(Nc2ncc(Br)c(NCCc3cnc[nH]3)n2)c1)N1CCCC1 .
Completion: active

Prompt: Entry O=C(O)C=Cc1ccc(Cn2ccnc2)cc1 : call = ?
Completion: inactive

Prompt: // param item: C[C@H](CCC(=O)O)[C@H]1CC[C@H]2[C@@H]3[C@H](O)C[C@@H]4C[C@H](O)CC[C@]4(C)[C@@H]3CC[C@]12C ; yields the recorded call
Completion: inactive

Prompt: Give the logged outcome of this assay for the following compound: CCOc1cc2ncc(C#N)c(Nc3ccc(OCc4ccccn4)c(Cl)c3)c2cc1NC(=O)C=CCN(C)C
Completion: active

Prompt: Recorded test call requested for CN[C@H]1[C@@H](O)[C@@H]2O[C@@H]3O[C@H](C)CC(=O)[C@]3(O)O[C@@H]2[C@@H](NC)[C@H]1O
Completion: active

---

- assay-remarks: Quantitative High-Throughput drug screen in 47 multiple myeloma cell lines against the NCATS MIPE library collection: KMS11_JCRBsus cell viability assay (AID 1919873); also: nearly all actives have a fitted effect of over 50% in size
- measurement-parameters: KMS11 myeloma viability, CellTiter-Glo ATP luminescence, 48 h; series mostly up to 45.8 µM
Inconclusive results are not listed. The source made the active and inactive calls. Calls follow the shape of the dose curve; as a rule, active = well fitted cell-killing curve with a large enough effect; inconclusive = small, poorly fitted or top-dose-only effect, or effect the other way; inactive = no such curve, though single readings can be large or run the other way.
Output constraint: value belongs to active, inactive

Prompt: Record lookup: outcome of this test for CC(C)C[C@H](NC(=O)CNC(=O)c1cc(Cl)ccc1Cl)B1OC(=O)CC(CC(=O)O)(C(=O)O)O1 (stereo partly drawn) ?
Completion: active

Prompt: What is the recorded call for this molecule in the test? O=C1NC(=O)C(=Cc2ccc3nccc(-c4ccncc4)c3c2)S1
Completion: active

Prompt: Which result was noted for this molecule in the test: C[C@H]1O[C@H](O[C@H]2[C@H](O)[C@@H](O)[C@@H](O[C@H]3[C@H](O)[C@@H](O)C(O)O[C@H]3CO)O[C@H]2CO)[C@H](O)[C@@H](O)[C@H]1N[C@H]1C=C(CO)[C@@H](O)[C@H](O)[C@@H]1O (stereo partly drawn)
Completion: inactive

Prompt: Could you please tell me the result logged for Cc1cc(O)c2c(c1)C(=O)c1cccc(O)c1C2=O in this assay?
Completion: inactive

Prompt: What outcome does the record of this test show for CC(C)OC(=O)[C@H](C)N[P@](=O)(OC[C@H]1O[C@@H](n2ccc(=O)[nH]c2=O)[C@](C)(F)[C@H]1O)Oc1ccccc1 ?
Completion: inactive

Prompt: Fill in: this test's call for N#Cc1ccc(COC[C@H]2O[C@@H](n3c(NCc4ccc(Cl)c(Cl)c4)nc4c(N)ncnc43)[C@@H](O)[C@@H]2O)cc1 is ___
Completion: active

Prompt: What was the test verdict on C[C@H](NCc1ccc(OCc2cccc(F)c2)cc1)C(N)=O ?
Completion: active

Prompt: Recorded call for C[C@@H]1CC[C@@]2(OC1)OC1CC3C4CC=C5CC(O)CCC5(C)C4CCC3(C)C1[C@@H]2C (stereo partly drawn) ?
Completion: inactive

Prompt: Entry C[C@H](O)[C@@H]1C(=O)N2C(C(=O)O)=C(S[C@@H]3CN[C@H](CNS(N)(=O)=O)C3)[C@@H](C)[C@@H]12 : call = ?
Completion: inactive

Prompt: Returns: the outcome recorded for CN1CCc2c(c3ccccc3n2Cc2ccc(C(=O)NO)cc2)C1 in this assay.
Completion: active

Prompt: Look up the recorded call for CC[C@]12C=CCN3CC[C@@]4(c5cc([C@@]6(C(=O)OC)C[C@H]7C[C@@H](C(C)(F)F)CN(Cc8c6[nH]c6ccccc86)C7)c(OC)cc5N(C)[C@H]4[C@@](O)(C(=O)OC)[C@H]1OC(C)=O)[C@@H]32 in this test.
Completion: active

Prompt: Outcome logged for CON=C(C(=O)N[C@@H]1C(=O)N2C(C(=O)O)=C(Cn3ccc(=N)n3CCO)CS[C@H]12)c1csc(N)n1 in this assay:
Completion: inactive

Prompt: I would be grateful if you could indicate the recorded call for C#CCC(Cc1cnc2nc(N)nc(N)c2n1)c1ccc(C(=O)N[C@@H](CCC(=O)O)C(=O)O)cc1 (stereo partly drawn) .
Completion: active

Prompt: # outcome recorded in this test, key = COc1ccc(Nc2cc(-c3cnc(N)nc3)nc(N3CCOCC3)n2)cn1
Completion: active

Prompt: Assay outcome for Cc1cnc(NC(=O)Nc2cc(Br)c(C)cc2OC[C@@H]2CNCCO2)cn1 : what was it?
Completion: active

Prompt: What call does the record list for C[C@@]12C(=O)OC(=O)[C@@]1(C)C1CCC2O1 ?
Completion: active

Prompt: Hi team, can someone confirm the assay call for Cc1cnc(Nc2ccc(N3CCN(C)CC3)cc2)nc1Nc1cccc(S(=O)(=O)NC(C)(C)C)c1 ?
Completion: active

Prompt: State the result this test recorded for Cc1cnc(Nc2ccc(CN3CCOCC3)cc2)nc1Nc1cccc(S(=O)(=O)NC(C)(C)C)c1 .
Completion: active
